Give measured inhibition at 1 µM for each item. Keep answers brief.
# tested_system: PI3kβ (Homo sapiens, UniProt P42338)
# Sequence (P42338 whole entry): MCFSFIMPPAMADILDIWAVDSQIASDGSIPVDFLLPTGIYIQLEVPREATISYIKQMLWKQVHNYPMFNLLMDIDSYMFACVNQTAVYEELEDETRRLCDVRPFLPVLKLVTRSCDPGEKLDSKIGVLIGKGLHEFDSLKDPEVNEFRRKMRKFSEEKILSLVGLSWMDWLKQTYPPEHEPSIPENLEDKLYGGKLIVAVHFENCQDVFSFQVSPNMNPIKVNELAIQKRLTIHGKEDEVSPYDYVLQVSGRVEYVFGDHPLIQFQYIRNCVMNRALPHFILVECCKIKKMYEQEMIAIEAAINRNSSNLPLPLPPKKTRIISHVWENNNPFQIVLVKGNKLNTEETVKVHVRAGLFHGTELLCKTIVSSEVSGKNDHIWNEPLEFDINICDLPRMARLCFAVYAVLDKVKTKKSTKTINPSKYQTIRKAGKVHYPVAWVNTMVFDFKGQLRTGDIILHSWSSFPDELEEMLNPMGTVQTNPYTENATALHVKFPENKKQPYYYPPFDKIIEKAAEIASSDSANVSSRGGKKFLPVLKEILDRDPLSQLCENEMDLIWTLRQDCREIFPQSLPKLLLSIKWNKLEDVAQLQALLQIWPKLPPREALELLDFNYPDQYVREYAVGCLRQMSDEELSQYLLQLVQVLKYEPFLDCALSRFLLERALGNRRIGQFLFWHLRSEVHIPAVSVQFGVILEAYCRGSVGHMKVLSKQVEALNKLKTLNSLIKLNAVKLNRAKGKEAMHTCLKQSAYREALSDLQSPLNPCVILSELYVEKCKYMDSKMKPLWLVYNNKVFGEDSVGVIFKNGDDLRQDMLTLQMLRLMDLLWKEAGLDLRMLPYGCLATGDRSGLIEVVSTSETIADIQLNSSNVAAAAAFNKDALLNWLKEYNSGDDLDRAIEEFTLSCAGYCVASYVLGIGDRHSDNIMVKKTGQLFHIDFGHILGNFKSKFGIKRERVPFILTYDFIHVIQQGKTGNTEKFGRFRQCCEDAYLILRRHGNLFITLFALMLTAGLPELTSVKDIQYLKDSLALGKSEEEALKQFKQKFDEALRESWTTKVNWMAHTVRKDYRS
# Sequence (P27986 whole entry partner): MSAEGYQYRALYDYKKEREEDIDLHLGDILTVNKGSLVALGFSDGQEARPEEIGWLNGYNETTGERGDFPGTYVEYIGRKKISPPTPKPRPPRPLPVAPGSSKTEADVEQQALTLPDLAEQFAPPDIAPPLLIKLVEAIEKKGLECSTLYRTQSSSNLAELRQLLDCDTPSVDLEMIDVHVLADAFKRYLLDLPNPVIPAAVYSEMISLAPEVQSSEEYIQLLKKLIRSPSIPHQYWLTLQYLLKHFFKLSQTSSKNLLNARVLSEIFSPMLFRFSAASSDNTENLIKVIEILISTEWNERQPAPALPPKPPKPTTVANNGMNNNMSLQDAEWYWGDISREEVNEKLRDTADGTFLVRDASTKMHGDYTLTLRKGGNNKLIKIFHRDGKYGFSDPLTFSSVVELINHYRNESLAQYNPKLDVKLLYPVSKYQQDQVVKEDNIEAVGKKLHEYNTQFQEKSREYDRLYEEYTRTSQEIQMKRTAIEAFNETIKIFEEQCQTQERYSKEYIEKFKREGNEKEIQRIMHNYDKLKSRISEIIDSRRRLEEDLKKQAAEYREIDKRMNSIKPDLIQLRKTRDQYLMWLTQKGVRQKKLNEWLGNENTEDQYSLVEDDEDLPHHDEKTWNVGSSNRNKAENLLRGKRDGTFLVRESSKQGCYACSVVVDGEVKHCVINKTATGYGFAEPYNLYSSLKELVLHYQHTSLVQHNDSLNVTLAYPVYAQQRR
# protocol_details: Fluorescent (HTRF) determination of PI3 kinase enzyme activity, PI3Kβ
# Type: biochemical
# measurement_conditions: 1 uM

The compound listed as Cc1nc2ccc(-c3nn(C(C)c4oc5cccc(F)c5c(=O)c4-c4cccc(F)c4)c4ncnc(N)c34)cc2o1 (centres unmarked) shows inhibition at 1 µM equal to 0 to 25%

Entry under test: CC(c1oc2cccc(F)c2c(=O)c1-c1cccc(F)c1)n1nc(-c2ccc(CN3CCOCC3)s2)c2c(N)ncnc21 (centres unmarked) . Its inhibition at 1 µM was 25 to 50%

Lookup result for CC(C)Oc1ccc(-c2nn(C(C)c3oc4cccc(F)c4c(=O)c3-c3ccc(F)cc3)c3ncnc(N)c23)cc1F (racemic) ; measured inhibition at 1 µM: 25 to 50%

Data point: CC(c1oc2cccc(F)c2c(=O)c1-c1cccc(F)c1)n1nc(-c2ccc(OC3CN(C(c4ccccc4)c4ccccc4)C3)c(F)c2)c2c(N)ncnc21 (centres unmarked) ; inhibition at 1 µM = 0 to 25%

# inhibition at 1 µM (compound: `Cc1n[nH]c2cc(-c3nn([C@H](C)c4oc5cccc(F)c5c(=O)c4-c4cccc(F)c4)c4ncnc(N)c34)ccc12` ) is 25 to 50%

Reported inhibition at 1 µM ( CC(Nc1ncnc2[nH]cnc12)c1oc2cccc(F)c2c(=O)c1-c1ccccc1F (centres unmarked) ) = 0 to 25%

Sample COC(=O)c1cc(-c2nn(C(C)c3oc4cccc(F)c4c(=O)c3-c3cccc(F)c3)c3ncnc(N)c23)cs1 (centres unmarked) ; inhibition at 1 µM observed: 25 to 50%

For CC(c1oc2cccc(F)c2c(=O)c1-c1cccc(F)c1)n1nc(-c2ccc(NCCO)c(F)c2)c2c(N)ncnc21 (centres unmarked) the compound record lists inhibition at 1 µM as 0 to 25%

Per the records, this compound ( CC(c1oc2cccc(F)c2c(=O)c1-c1cccc(F)c1)n1nc(-c2cc3ccccc3o2)c2c(N)ncnc21 (centres unmarked) ) has inhibition at 1 µM equal to 0 to 25%

Summary for this compound, CC(c1oc2cccc(F)c2c(=O)c1-c1cccc(F)c1)n1nc(-c2cccc(NS(C)(=O)=O)c2)c2c(N)ncnc21 (centres unmarked) : inhibition at 1 µM is 50 to 75%

CC(=O)Nc1ccc(-c2nn(C(C)c3oc4cccc(F)c4c(=O)c3-c3cccc(F)c3)c3ncnc(N)c23)cc1F (centres unmarked) yielded inhibition at 1 µM of 25 to 50%

Consider CC(c1oc2cccc(F)c2c(=O)c1-c1cccc(F)c1)n1nc(-c2ccc(N3CCOCC3)c(F)c2)c2c(N)ncnc21 (centres unmarked) [Example 25] . Its measured inhibition at 1 µM is 25 to 50%

Looking up CC(C)C(=O)Nc1ccc(-c2nn(C(C)c3oc4cccc(F)c4c(=O)c3-c3cccc(F)c3)c3ncnc(N)c23)cc1F (centres unmarked) , I see its inhibition at 1 µM listed as 25 to 50%

// sample CCC(Nc1ncnc2[nH]cnc12)c1oc2cccc(F)c2c(=O)c1-c1ccccc1 (centres unmarked) , its inhibition at 1 µM was 25 to 50%

----------
Assign inhibition at 0.1 µM to each entry below.
# tested_system: PI3kδ (Homo sapiens)
# Sequence (O00329 whole entry, one chain of several): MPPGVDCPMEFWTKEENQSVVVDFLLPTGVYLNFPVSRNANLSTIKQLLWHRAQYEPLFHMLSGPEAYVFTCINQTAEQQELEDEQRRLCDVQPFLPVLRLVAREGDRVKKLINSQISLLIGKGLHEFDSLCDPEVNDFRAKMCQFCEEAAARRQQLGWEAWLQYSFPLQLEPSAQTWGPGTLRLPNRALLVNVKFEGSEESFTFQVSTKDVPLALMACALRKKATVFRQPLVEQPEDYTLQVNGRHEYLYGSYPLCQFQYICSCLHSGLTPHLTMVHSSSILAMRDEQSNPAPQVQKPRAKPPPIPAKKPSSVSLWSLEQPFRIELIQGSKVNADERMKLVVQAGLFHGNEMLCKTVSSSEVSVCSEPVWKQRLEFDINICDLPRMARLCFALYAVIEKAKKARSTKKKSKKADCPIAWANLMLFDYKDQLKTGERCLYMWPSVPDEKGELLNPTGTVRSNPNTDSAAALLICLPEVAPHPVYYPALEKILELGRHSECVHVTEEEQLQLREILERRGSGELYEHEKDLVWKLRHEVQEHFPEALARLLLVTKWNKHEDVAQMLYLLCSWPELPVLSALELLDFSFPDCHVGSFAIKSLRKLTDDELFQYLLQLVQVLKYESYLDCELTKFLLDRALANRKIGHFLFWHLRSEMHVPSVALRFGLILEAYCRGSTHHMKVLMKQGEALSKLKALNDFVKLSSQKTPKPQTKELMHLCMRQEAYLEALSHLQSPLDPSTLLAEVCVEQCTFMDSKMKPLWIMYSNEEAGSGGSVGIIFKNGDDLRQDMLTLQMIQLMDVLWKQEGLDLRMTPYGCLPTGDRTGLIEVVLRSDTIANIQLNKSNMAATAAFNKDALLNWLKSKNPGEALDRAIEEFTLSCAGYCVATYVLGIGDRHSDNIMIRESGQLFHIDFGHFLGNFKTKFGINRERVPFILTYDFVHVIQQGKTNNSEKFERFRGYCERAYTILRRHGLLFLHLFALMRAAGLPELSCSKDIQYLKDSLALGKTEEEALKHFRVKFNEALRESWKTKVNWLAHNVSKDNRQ
# protocol_details: Fluorescent (HTRF) determination of PI3 kinase enzyme activity, PI3Kδ
# Format: biochemical
# measurement_conditions: 100 nM (Examples 60-137)

Reported inhibition at 0.1 µM for Cc1cccc2oc([C@H](C)n3nc(-c4ccc(OC(C)C)c(F)c4)c4c(N)ncnc43)c(-c3ccccc3)c(=O)c12 (single isomer, unassigned) [Example 137] was 25 to 50%

Briefly, inhibition at 0.1 µM measured for COCc1ccc(-c2nn(C(C)c3oc4cccc(F)c4c(=O)c3-c3cccc(F)c3)c3ncnc(N)c23)cc1 (stereo not drawn) [Example 72] : 0 to 25%

Value of measured inhibition at 0.1 µM for the entry CC(C)C(=O)Nc1ccc(-c2nn(C(C)c3oc4cccc(F)c4c(=O)c3-c3cccc(F)c3)c3ncnc(N)c23)cc1F (stereo not drawn) [Example 81] : 50 to 75%

----------
# tested_system: PI3kα (Homo sapiens, UniProt P42336)
# Sequence (P42336 whole entry, one chain of several): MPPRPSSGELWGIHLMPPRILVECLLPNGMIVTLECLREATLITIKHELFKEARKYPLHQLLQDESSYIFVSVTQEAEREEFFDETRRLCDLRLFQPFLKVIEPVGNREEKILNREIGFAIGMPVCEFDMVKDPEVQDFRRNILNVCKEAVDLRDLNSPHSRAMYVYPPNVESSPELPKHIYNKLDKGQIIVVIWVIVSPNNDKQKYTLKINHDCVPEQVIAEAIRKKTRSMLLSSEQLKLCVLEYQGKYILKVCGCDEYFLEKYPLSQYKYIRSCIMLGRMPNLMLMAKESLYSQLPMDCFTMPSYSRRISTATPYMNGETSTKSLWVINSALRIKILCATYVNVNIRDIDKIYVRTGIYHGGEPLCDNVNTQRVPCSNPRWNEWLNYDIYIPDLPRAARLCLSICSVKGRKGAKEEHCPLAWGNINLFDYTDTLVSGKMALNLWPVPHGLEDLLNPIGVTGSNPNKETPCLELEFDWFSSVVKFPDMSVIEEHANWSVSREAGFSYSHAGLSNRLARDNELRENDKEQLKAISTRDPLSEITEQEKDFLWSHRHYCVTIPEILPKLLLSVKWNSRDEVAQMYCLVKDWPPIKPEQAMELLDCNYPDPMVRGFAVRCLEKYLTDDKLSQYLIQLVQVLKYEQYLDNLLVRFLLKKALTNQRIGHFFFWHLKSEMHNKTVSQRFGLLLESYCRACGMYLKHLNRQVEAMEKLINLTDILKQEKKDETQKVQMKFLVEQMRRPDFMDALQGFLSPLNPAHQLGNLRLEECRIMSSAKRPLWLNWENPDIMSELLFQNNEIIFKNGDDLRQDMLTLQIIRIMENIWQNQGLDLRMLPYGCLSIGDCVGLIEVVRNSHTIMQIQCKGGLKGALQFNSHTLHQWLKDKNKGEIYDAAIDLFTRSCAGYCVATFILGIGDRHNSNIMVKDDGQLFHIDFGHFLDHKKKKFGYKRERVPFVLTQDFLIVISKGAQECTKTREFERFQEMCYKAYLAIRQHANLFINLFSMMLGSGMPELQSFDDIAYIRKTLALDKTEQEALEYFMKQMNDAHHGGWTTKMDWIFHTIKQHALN
# protocol_details: Fluorescent (HTRF) determination of PI3 kinase enzyme activity, PI3Kα
# Type: biochemical
# measurement_conditions: 1 uM
outcome_measure: % inhibition (PI3kα) 1 uM

compound="CC(C)Oc1ccc(-c2nn(C(C)c3oc4cccc(F)c4c(=O)c3-c3cccc(F)c3)c3ncnc(N)c23)cc1F (single isomer, unassigned; (-)) [Example 8]" recorded_measurement="D (D=0 to 25%)"
compound="CC(c1oc2cccc(F)c2c(=O)c1-c1cccc(F)c1)n1cnc2c(N(C)C)ncnc21 (racemic)" recorded_measurement="D (D=0 to 25%)"

----------
# tested_system: PI3kβ (Homo sapiens, UniProt P42338)
# protocol_details: Fluorescent (HTRF) determination of PI3 kinase enzyme activity, PI3Kβ
# Assay type: biochemical
outcome_measure: IC50

// CC(c1oc2cccc(F)c2c(=O)c1-c1cccc(F)c1)n1nc(-c2ccc(N3CCOCC3)c(F)c2)c2c(N)ncnc21 (single isomer, unassigned) [Example 59] : IC50 value = > 500 nM

Query Nc1ncnc2c1c(-c1cc(O)cc(F)c1)nn2Cc1oc2cccc(F)c2c(=O)c1-c1cccc(F)c1 [Example 5] yields IC50 of 300 to 500 nM

IC50 measured on CC(C)Oc1ccc(-c2nn(C(C)c3oc4cccc(F)c4c(=O)c3-c3cccc(F)c3)c3ncnc(N)c23)cc1F (single isomer, unassigned; (-)) [Example 8] = 300 to 500 nM

----------
# tested_system: PI3kγ (Homo sapiens, UniProt P48736)
# Sequence (P48736 whole entry): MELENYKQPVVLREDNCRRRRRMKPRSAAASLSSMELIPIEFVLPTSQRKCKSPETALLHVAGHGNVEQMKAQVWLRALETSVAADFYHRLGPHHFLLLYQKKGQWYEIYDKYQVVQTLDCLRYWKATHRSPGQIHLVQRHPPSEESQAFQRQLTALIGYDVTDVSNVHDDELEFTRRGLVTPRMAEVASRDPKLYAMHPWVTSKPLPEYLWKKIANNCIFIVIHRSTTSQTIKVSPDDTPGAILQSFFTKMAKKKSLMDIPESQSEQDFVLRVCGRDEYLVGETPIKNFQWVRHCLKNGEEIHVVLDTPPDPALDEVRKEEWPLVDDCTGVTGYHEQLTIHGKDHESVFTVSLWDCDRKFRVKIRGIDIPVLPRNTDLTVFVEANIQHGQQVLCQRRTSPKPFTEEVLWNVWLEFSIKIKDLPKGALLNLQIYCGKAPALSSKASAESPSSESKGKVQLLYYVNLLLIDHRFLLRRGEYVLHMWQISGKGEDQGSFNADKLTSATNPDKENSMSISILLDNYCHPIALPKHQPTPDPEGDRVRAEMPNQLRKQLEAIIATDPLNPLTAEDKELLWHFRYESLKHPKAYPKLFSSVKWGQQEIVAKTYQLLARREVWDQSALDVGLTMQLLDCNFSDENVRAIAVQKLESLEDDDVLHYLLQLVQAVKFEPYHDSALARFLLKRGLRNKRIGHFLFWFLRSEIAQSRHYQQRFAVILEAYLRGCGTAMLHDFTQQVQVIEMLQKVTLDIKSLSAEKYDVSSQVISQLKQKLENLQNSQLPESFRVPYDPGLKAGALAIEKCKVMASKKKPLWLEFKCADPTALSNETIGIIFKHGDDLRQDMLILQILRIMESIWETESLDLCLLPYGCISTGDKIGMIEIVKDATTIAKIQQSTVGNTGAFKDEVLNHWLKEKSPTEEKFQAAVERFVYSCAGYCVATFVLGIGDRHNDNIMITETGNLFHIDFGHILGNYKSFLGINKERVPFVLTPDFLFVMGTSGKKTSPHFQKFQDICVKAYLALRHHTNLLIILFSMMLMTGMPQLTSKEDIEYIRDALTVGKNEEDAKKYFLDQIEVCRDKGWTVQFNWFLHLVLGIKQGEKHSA
# protocol_details: Fluorescent (HTRF) determination of PI3 kinase enzyme activity, PI3Kγ
# Assay type: biochemical
outcome_measure: IC50

Measured IC50 of CC(C)Oc1ccc(-c2nn(C(C)c3oc4cccc(F)c4c(=O)c3-c3cccc(F)c3)c3ncnc(N(C)C)c23)cc1F (centres unmarked) : ≤ 50 nM

Sure, the documented IC50 for Cc1nc2cc(-c3nn(C(C)c4oc5cccc(F)c5c(=O)c4-c4cccc(F)c4)c4ncnc(N)c34)ccc2[nH]1 (centres unmarked) is 50 to 100 nM

IC50 reading for CC(C)Oc1ccc(-c2nn(C(C)c3oc4cccc(F)c4c(=O)c3-c3cccc(F)c3)c3ncnc(N)c23)cc1F (centres unmarked) [Example 6] : 50 to 100 nM

The value of IC50 measured for the compound CC(c1oc2cccc(F)c2c(=O)c1-c1cccc(F)c1)n1nc(-c2ccc(N3CCOCC3)c(F)c2)c2c(N)ncnc21 (single isomer, unassigned) [Example 59] turned out to be ≤ 50 nM

Looking up CC(c1oc2cccc(F)c2c(=O)c1-c1cccc(F)c1)n1nc(-c2ccc(N3CCOCC3)c(F)c2)c2c(N)ncnc21 (centres unmarked) [Example 25] , I see its IC50 listed as ≤ 50 nM

Value of measured IC50 for the entry `Cc1n[nH]c2cc(-c3nn([C@@H](C)c4oc5cccc(F)c5c(=O)c4-c4cccc(F)c4)c4ncnc(N)c34)ccc12` : ≤ 50 nM

Reported IC50 of `CC(C)Oc1ccc(-c2nn(Cc3oc4cccc(F)c4c(=O)c3-c3cccc(F)c3)c3ncnc(N)c23)cc1F` : 100 to 300 nM

Value of measured IC50 for the entry CC(C)Oc1ccc(-c2nn(C(C)c3oc4cccc(F)c4c(=O)c3-c3ccccc3)c3ncnc(N)c23)cc1F (racemic) [Example 100] : 50 to 100 nM

# compound CC(C)C(=O)Nc1ccc(-c2nn(C(C)c3oc4cccc(F)c4c(=O)c3-c3ccc(F)cc3)c3ncnc(N4CCOCC4)c23)cc1F (centres unmarked) ; its IC50 = > 500 nM

IC50 reading for CNc1ncnc2c1c(-c1ccc(OC(C)C)c(F)c1)nn2C(C)c1oc2cccc(F)c2c(=O)c1-c1cccc(F)c1 (centres unmarked) : > 500 nM

Lab note: CC(c1oc2cccc(F)c2c(=O)c1-c1cccc(F)c1)n1nc(-c2ccc(N3CCOCC3)c(Cl)c2)c2c(N)ncnc21 (centres unmarked) gave IC50 of 50 to 100 nM

So, CC(c1oc2cccc(F)c2c(=O)c1-c1cccc(F)c1)n1nc(-c2cc3ccccc3o2)c2c(N)ncnc21 (centres unmarked) ? Its IC50 was 50 to 100 nM

Reported IC50 ( CC(C)Oc1ccc(-c2nn(C(C)c3oc4cccc(F)c4c(=O)c3-c3cccc(F)c3)c3ncnc(N)c23)cc1F (single isomer, unassigned; (+)) [Example 7] ) = ≤ 50 nM

// IC50 value for CC(C)Oc1ccc(-c2nn(C(C)c3oc4cccc(F)c4c(=O)c3-c3ccccc3)c3ncnc(N)c23)cc1F (single isomer, unassigned) [Example 101] : 100 to 300 nM

IC50 for CC(C)C(=O)Nc1ccc(-c2nn(C(C)c3oc4cccc(F)c4c(=O)c3-c3cccc(F)c3)c3ncnc(N)c23)cc1 (centres unmarked) is ≤ 50 nM

For reference, reported IC50 for Cc1n[nH]c2cc(-c3nn(C(C)c4oc5cccc(F)c5c(=O)c4-c4cccc(F)c4)c4ncnc(N)c34)ccc12 (centres unmarked) stands at 50 to 100 nM

Just so you know, measured IC50 for CC(c1oc2cccc(F)c2c(=O)c1-c1cccc(F)c1)n1cnc2c(N(C)C)ncnc21 (centres unmarked) came out at 50 to 100 nM

The recorded IC50 for entry `Cc1n[nH]c2cc(-c3nn([C@H](C)c4oc5cccc(F)c5c(=O)c4-c4cccc(F)c4)c4ncnc(N)c34)ccc12` equals 300 to 500 nM

Form field IC50, entry CC(c1oc2cccc(F)c2c(=O)c1-c1cccc(F)c1)n1nc(-c2cccc(NS(C)(=O)=O)c2)c2c(N)ncnc21 (centres unmarked) : 50 to 100 nM

Item: CC(C)Nc1ccc(-c2nn(C(C)c3oc4cccc(F)c4c(=O)c3-c3cccc(F)c3)c3ncnc(N)c23)cc1F (centres unmarked) | IC50: ≤ 50 nM

Form field IC50, entry CC(c1oc2cccc(F)c2c(=O)c1-c1cccc(F)c1)n1nc(-c2cn[nH]c2)c2c(N)ncnc21 (centres unmarked) : 100 to 300 nM

Recorded result, CC(C)Oc1ccc(-c2nn(C(C)c3oc4cccc(F)c4c(=O)c3-c3cccc(F)c3)c3ncnc(N)c23)cc1F (single isomer, unassigned; (-)) [Example 8] , IC50: ≤ 50 nM

IC50 measured on CC(C)Oc1ccc(-c2nn(C(C)c3oc4cccc(F)c4c(=O)c3-c3ccc(F)cc3)c3ncnc(N)c23)cc1F (centres unmarked) = 100 to 300 nM
